# SYSTEM_TESTED: human renin (Homo sapiens, UniProt P00797)
# Construct: angiotensin-I released from human renin substrate by human resin in human plasma; from tissue; host or cells: human plasma (containing EDTA)
# Sequence (P00797 67-406): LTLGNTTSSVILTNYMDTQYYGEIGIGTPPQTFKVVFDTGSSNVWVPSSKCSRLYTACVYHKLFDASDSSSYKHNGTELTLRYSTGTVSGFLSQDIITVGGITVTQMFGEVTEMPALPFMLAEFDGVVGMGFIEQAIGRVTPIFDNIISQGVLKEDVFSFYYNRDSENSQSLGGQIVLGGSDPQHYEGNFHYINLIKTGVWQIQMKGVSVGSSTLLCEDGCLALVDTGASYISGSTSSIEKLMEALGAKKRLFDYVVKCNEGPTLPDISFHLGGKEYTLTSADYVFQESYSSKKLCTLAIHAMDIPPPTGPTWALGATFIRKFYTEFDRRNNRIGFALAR
# PROTOCOL_DESCRIPTION: human renin-renin substrate reaction in vitro; radioimmunoassay of angiotensin-I released in human plasma
# Assay type: biochemical
# SETUP_CONDITIONS: Table 2; read-out: IC50 μM v/s human renin
*1 amine or outer side, *2 acyl side, *3 side chain or, on linkers, in order; H or OH if unused. Where a SMILES comes first, the peptide text is derived from it. [ ]: non-standard residue; d: D form. The star is where a group is joined. X1 = CC(C)C[C@H](N[*:1])[C@@H](O)C[C@H](C(=O)[*:2])C(C)C; Boc = CC(C)(C)OC(=O)*
PARAMETER: IC50 (µM)

For orientation, consider the following solved cases.
{"columns": ["COMPOUND", "UNIT_ANNOTATION", "REPORTED_RESULT"],
 "data": [
  ["CC[C@H](C)[C@H](NC(=O)[C@@H](C[C@H](O)[C@H](CC(C)C)NC(=O)[C@H](Cc1c[nH]cn1)NC(=O)[C@@H](N)Cc1ccccc1)C(C)C)C(=O)N[C@@H](Cc1c[nH]cn1)C(=O)O [Example XLVII] (H-FH[X1]IH-OH)", "µM", 5],
  ["CC[C@H](C)[C@H](NC(=O)[C@@H](C[C@H](O)[C@H](CC(C)C)NC(=O)[C@H](Cc1c[nH]cn1)NC(=O)[C@H](Cc1ccccc1)NC(=O)OC(C)(C)C)C(C)C)C(=O)N[C@@H](Cc1c[nH]cn1)C(=O)OC [Example LI] (Boc-FH[X1]IH-OMe)", "µM", 0.0035]
]}

I. CC[C@H](C)[C@H](NC(=O)[C@@H](C[C@H](O)[C@H](CC(C)C)NC(=O)[C@H](Cc1c[nH]cn1)NC(=O)[C@H](Cc1ccccc1)NC(=O)OC(C)(C)C)C(C)C)C(=O)OC
II. CC[C@H](C)[C@H](NC(=O)[C@@H](C[C@H](O)[C@@H](N)CC(C)C)C(C)C)C(=O)N[C@@H](Cc1c[nH]cn1)C(=O)O
When their IC50 values are compared, which is larger, I or II ? Indicate your choice by writing its label.
II
(II: 29 µM, I: 0.005 µM)
